Biological target: c-kit (Homo sapiens)
Construct: human Mo7e cells which endogenously express c-kit; endogenous in cells; host or cells: human Mo7e cells (promegakaryocytic leukemia line), stimulated with human recombinant SCF
Sequence (P10721 26-976): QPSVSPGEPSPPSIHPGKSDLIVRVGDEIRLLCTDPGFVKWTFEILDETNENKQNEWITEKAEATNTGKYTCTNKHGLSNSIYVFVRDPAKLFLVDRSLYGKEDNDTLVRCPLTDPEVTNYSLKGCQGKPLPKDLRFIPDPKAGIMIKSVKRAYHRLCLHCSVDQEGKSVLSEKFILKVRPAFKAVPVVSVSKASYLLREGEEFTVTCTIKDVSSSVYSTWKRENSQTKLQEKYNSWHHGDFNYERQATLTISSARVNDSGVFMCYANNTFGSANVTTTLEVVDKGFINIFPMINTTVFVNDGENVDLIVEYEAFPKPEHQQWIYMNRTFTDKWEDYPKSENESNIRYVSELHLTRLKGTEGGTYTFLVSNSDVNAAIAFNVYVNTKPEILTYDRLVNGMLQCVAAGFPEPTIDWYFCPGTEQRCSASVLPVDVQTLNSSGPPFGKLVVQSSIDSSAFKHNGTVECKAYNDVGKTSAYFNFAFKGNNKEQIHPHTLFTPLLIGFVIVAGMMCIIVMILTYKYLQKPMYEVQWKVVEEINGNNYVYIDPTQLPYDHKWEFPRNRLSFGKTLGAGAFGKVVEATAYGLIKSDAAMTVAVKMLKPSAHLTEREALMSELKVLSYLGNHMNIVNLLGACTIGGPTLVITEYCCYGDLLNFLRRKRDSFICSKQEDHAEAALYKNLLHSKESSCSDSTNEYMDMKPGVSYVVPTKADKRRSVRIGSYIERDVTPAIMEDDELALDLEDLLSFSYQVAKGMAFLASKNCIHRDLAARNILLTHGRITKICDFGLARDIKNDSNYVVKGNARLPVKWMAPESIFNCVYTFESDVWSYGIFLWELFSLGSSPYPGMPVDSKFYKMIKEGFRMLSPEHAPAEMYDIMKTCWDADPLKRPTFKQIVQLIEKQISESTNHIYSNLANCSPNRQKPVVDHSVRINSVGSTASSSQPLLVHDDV
Test: Mo7e cell proliferation assay (SCF dependent proliferation)
Assay type: cell-based
Details: Table 1; Mo7e cells stimulated with human recombinant SCF, 48 hours; 1% FBS
So basically, if IC50 comes in under 0.02 µM it's 1, and if it's 0.02 µM or more it's 0.

Cc1nc(-c2nc(-c3ccc(C)c(NC(=O)c4cnc5ccccn45)c3)no2)c(C(F)(F)F)o1 [F22]: 0
Cc1ccc(-c2nc(-c3cccc(C(F)(F)F)c3)no2)cc1NC(=O)c1cnc2ccccn12 [F7]: 0
Cc1ccc(Nc2noc(-c3ncccn3)n2)cc1NC(=O)c1cnc2ccccn12 [F19]: 0

Answer whether the compound Cc1ccc(Nc2noc(-c3nccn3C)n2)cc1NC(=O)c1cnc2ccccn12 [F16] has IC50 strictly less than 0.02 µM
0

Answer whether the compound Cc1ccc(-c2nc(Nc3ccc(C)c(NC(=O)c4cnc5ccccn45)c3)no2)cn1 [F17] has IC50 strictly less than 0.02 µM
1

Answer whether the compound Cc1ccnc(-c2noc(-c3ccc(C)c(NC(=O)c4cnc5ccccn45)c3)n2)c1 [F10] has IC50 strictly less than 0.02 µM
0

Answer whether the compound Cc1ccc(-c2nc(Cc3ccccc3F)no2)cc1NC(=O)c1cnc2ccccn12 [F9] has IC50 strictly less than 0.02 µM
1

Answer whether the compound Cc1ccc(-c2nc(-c3ccccc3)no2)cc1NC(=O)c1cnc2ccccn12 [F2] has IC50 strictly less than 0.02 µM
1

Answer whether the compound Cc1ccc(Nc2noc(-c3ccnc(N4CCOCC4)c3)n2)cc1NC(=O)c1cnc2ccccn12 [F12] has IC50 strictly less than 0.02 µM
0
